target: T1, biotinylated hBLyS-ECD (human, UniProt Q9Y275 134-285, biotinylated with Biotin-X-X-NHS (molar ratio 7:1); sites not stated); assay: ELISA on captured biotinylated hBLyS-ECD; antibody 0.0213 nM
T1 construct: also called biotinylated immunogen; biotinylated hBLvS-ECD
T1 sequence (Q9Y275 134-285): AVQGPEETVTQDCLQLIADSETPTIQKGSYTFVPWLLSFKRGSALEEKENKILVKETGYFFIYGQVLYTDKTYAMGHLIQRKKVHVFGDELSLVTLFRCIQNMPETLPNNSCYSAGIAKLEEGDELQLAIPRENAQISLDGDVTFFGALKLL
observable: OD450 nm (OD450 nm)
The response must be a number in OD450 nm with no trailing unit.

Would you mind telling me what OD450 nm value was observed for c97A3C2H4 (antibody, V domains shown, also called chimeric antibody c97A3C2H4) VH: EVKLVESGGGLVQPGGSLKLSCAASGFTFSTYTMSWVRQTPEKRLEWVAYISYGGGSTSYPDTVKGRFTISRDNAKNTLYLQMSSLKSEDTAIYYCTRHVTVVENSMDYWGQGTSVTVSS VL: DILLTQSPDILSVSPGERVSFSCRASQSIGTSIHWYQQRTNGSPRLLIKYVSESFSGTPSRFSGSGSGTAFTLTINSVESEDIADYYCQQTHSWPWTFGGGTKLEIK ? 0.936

Next up: c111D10D6G3 (antibody, V domains shown) VH: QVQLQQPGAELVKPGASVKMSCKASGYTFTRHWITWVKQRPGQGLEWIGDIFPGSGSINYNEKFKSEATLTVEKSSSTAYMQLSSLTSEDSAVYYCARGDVDVWGTGTTVTVSS VL: DIQMTQSPSSLSASLGERVSLTCRASQEIRGYLSWLQQKPNGTIKRLIYAASTLDSGVPKRFSATRSGSDFSLTISSLESEDFADYYCLQYASYPFTFGSGTKLEIK 0.747

Thanks! And c8E7D9C7F5 (antibody, V domains shown, also called chimeric antibody c8E7D9C7F5) VH: QVQLQQSGVELARPGASVKLSCKASGYTFTSYGISWVKQRTGQALEWIGEIYPRSGNTYYNEKFKGKATLTADKSSSTAYMELRSLTSEDSAVYFCARSGPITTLVATDYGMDYWGQGTSVTVSS VL: DIVLTQSPASLAVSLGQRATISCRASKSVSTSSYSYMHWYQQKPGQPPKLLIKFASNLESGVPARFSGSGSGTDFTLNIHPVEEEDAATYYCQHSREFPYTFGGGTKLEIK ? 0.574

Cited source for all entries: patent US20210347873A1
